Assay: qHTS assay to identify small molecule agonists of the farnesoid-X-receptor (FXR) signaling pathway - cell viability counter screen (AID 743218); note: % is set by controls: 0 for no effect and ±100 for the full control effect; nearly all actives have a fitted effect of over 45% in size
Settings: FXR-bla HEK293T viability, CellTiter-Glo luminescence, 16 h; series mostly up to 62.6 µM
Text: U.S. Tox21 Program National Center for Advancing Translational Sciences [NCATS] NIH Chemical Genomics Center [NCGC] U.S. Environmental Protection Agency [EPA] National Institutes of Environmental Health Sciences [NIEHS] National Toxicology Program [NTP] U.S. Food and Drug Administration [FDA] Tox21 Assay Overview: The farnesoid-X-receptor (FXR), a nuclear hormone receptor, is highly expressed in liver, intestine, kidney and adrenal cortex. […]
Inconclusive results are not listed. Active and inactive are the calls of the source. Calls come from the whole dose curve; as a rule, active = well fitted cell-killing curve with a large enough effect in the repeat runs; inconclusive = weak or mixed curves, or effect the other way; inactive = no such curve, though single readings can be large or run the other way.
The categories you may choose from are Yes for active, No for inactive

Asked: Recorded test outcome, item C=C(C)C(=O)OCC1CO1 (configuration not stated)
Given back: No

###

target: Estrogen receptor (Homo sapiens) (UniProt P03372); test: qHTS assay to identify small molecule agonists of the estrogen receptor alpha (ER-alpha) signaling pathway using the BG1 cell line (AID 743079); details: BG1Luc4E2 cells, ERE-luciferase agonist, 22 h; series mostly up to 70.3 µM; note: nearly all actives have a fitted effect of over 20% in size; for activation: % is set by controls: 0 for no effect and ±100 for the full control effect
Sequence (P03372 whole entry, looked up): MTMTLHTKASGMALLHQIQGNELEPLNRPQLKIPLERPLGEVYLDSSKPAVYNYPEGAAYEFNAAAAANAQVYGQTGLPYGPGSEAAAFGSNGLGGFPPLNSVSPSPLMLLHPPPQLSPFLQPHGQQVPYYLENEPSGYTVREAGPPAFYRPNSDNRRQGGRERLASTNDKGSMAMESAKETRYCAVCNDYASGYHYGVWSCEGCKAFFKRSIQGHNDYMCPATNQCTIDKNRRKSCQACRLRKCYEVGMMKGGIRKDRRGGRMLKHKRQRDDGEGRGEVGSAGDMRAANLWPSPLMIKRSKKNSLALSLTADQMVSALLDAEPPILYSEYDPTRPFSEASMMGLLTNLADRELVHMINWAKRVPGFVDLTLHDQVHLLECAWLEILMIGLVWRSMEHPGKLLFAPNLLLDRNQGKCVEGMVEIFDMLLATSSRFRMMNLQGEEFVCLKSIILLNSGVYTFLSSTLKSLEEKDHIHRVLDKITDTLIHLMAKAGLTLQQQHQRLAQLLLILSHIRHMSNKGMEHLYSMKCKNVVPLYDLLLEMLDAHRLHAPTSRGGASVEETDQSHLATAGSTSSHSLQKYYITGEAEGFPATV
Inconclusive results are not listed. Calls of active or inactive are those of the source. The call rests on the fitted dose curve; in most records, active means well fitted activation curve with a large enough effect in the repeat runs; inconclusive means weak or mixed curves, or effect the other way; inactive means no such curve, though single readings can be large or run the other way.
Give one outcome, nothing more. List: TRUE (active), FALSE (inactive)

# query smiles, group
measured = [
    ("CCN(N=O)C(N)=O", "FALSE"),
    ("c1nc[nH]n1", "FALSE"),
    ("CCCCCCCCOC(=O)c1ccccc1C(=O)OCCCCCCCC", "FALSE"),
    ("CCCCNC(=O)n1c(NC(=O)OC)nc2ccccc21", "TRUE"),
    ("CCOCN(C(=O)CCl)c1c(C)cccc1CC", "FALSE"),
]

Asked: Each compound tested received a call. Report the one for CCCCCCOC(=O)c1ccccc1C(=O)OCCCCCC .
Given back: FALSE

Asked: Please share the test call associated with NNC(N)=S .
Given back: FALSE

###

assay: A CellTox Green Cytotoxicity Assay to monitor cytotoxicity in HEK293 cells - 40 hour (AID 1224871); conditions: CellTox Green fluorescence; series mostly up to 76.8 µM; note: nearly all actives have a fitted effect of over 45% in size
Records with an inconclusive call do not appear. Activity calls are given as the source filed them. Calls follow the shape of the dose curve; as a rule, active = well fitted activation curve with a large enough effect in the repeat runs; inconclusive = weak or mixed curves; inactive = flat fitted curve, though single readings scatter.
Your reply should match one of these outcome classes. T for active, F for inactive

Some solved entries appear below for comparison.
# query smiles, group
records = [
    ("Oc1ccc(-c2ccccc2)cc1", "T"),
    ("Oc1cc(Cl)c(Cl)cc1Cl", "F"),
    ("CCN(N=O)C(N)=O", "F"),
    ("CCCCCCCCC(=O)NCc1ccc(O)c(OC)c1", "F"),
    ("CCCCNC(=O)n1c(NC(=O)OC)nc2ccccc21", "F"),
]

Below: the item to evaluate.
Asked: // outcome(item) with item = CCOP(=S)(OCC)O/N=C(\C#N)c1ccccc1
Given back: F

###

assay: qHTS assay to test for compound auto fluorescence at 460 nm (blue) in HepG2 cells (AID 720687); details: autofluorescence 405/460 nm, 1 h; series mostly up to 91.3 µM; note: % is set by controls: 0 for no effect and ±100 for the full control effect
Activity calls are given as the source filed them. Calls follow the shape of the dose curve; as a rule, active = well fitted curve in the direction sought with a large enough effect in the repeat runs; inconclusive = weak or mixed curves; inactive = flat fitted curve, though single readings scatter.
measured property: outcome

# compound, outcome
rows = [
    ("Cc1cccc(N)c1N", "inactive"),
    ("C=CCN(CC=C)C(=O)C(Cl)Cl", "inactive"),
    ("CCCCC(CC)COC(=O)Cl (stereo not given)", "inactive"),
    ("COc1ccc(C=O)cc1", "inactive"),
    ("Nc1ccc(-c2ccc(N)c(N)c2)cc1N", "inactive"),
]

Asked: Which outcome value belongs to C=CCc1ccc(OC)cc1 ?
Given back: inactive

Asked: Query: outcome; subject: C=C(C)C(=O)OCC1CO1 (stereo not given)
Given back: inactive

Asked: Field request: outcome | item: CC(C)N(C(=O)SCC(Cl)=C(Cl)Cl)C(C)C
Given back: inactive

Asked: Suppose we examine the compound Clc1nc(Cl)nc(Cl)n1 ; what outcome value has been reported?
Given back: inactive

Asked: // outcome lookup, key: CCCCCCOC(=O)c1ccccc1C(=O)OCCCCCC
Given back: inactive

Asked: Please look up its outcome: CCOc1cc(C=O)ccc1O
Given back: inactive

###

biological target: Progesterone receptor (Homo sapiens); assay: qHTS assay to identify small molecule antagonists of the progesterone receptor (PR) signaling pathway (AID 1346795); conditions: PR-UAS-bla HEK293T, beta-lactamase FRET ratio, 16 h; series mostly up to 92.4 µM; note: % is set by controls: 0 for no effect and ±100 for the full control effect
Results filed as inconclusive are left out. Calls of active or inactive are those of the source. The call rests on the fitted dose curve; in most records, active means well fitted inhibition curve with a large enough effect in the signal ratio in the repeat runs (not every such curve was filed as active); inconclusive means weak or mixed curves; inactive means flat fitted curve, though single readings scatter; the % refers to the signal ratio.
Hello, when you answer, please use one of the following outcomes: label 1 (active), label 0 (inactive)

Here's what some known entries look like.
# molecule, group
data = [
    ("CCCCN(CC)c1c([N+](=O)[O-])cc(C(F)(F)F)cc1[N+](=O)[O-]", "label 0"),
    ("S=C1NCCN1", "label 0"),
    ("O=C(O)CC[N+](=O)[O-]", "label 0"),
]

Asked: Hey, what did the test say about O=C(O)C(F)(F)C(F)(F)C(F)(F)C(F)(F)C(F)(F)C(F)(F)C(F)(F)F ?
Given back: label 0

Asked: Fill in: this test's call for O=[N+]([O-])c1cccc2ccccc12 is ___
Given back: label 0

###

assay: qHTS assay to identify small molecule antagonists of the estrogen receptor alpha (ER-alpha) signaling pathway - cell viability counter screen (AID 743074); conditions: ERalpha-bla HEK293 viability, CellTiter-Glo luminescence, 18 h; series mostly up to 69.4 µM;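 note: HEK293 cells carrying ER-alpha-UAS-bla reporter stimulated with 17beta-estradiol; % is set by controls: 0 for no effect and ±100 for the full control effect; nearly all actives have a fitted effect of over 45% in size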
Inconclusive results are not listed. Activity calls are given as the source filed them. Calls come from the whole dose curve.
measured property: outcome

# compound, outcome
rows = [
    ("CNC(=O)Oc1cccc2c1OC(C)(C)O2", "inactive"),
    ("O=S(=O)(Oc1ccc(Cl)cc1)c1ccc(Cl)cc1", "inactive"),
    ("CCN(CC)N=O", "inactive"),
    ("CCOC(=O)C(C)OC(=O)c1cc(Oc2ccc(C(F)(F)F)cc2Cl)ccc1[N+](=O)[O-] (configuration not stated)", "inactive"),
    ("CCOP(=S)(OCC)O/N=C(\\C#N)c1ccccc1", "inactive"),
    ("CCOc1cc(C=O)ccc1O", "inactive"),
]

Asked: Suppose we examine the compound COc1ccc(C=O)cc1 ; what outcome value has been reported?
Given back: inactive

###

assay: qHTS assay to identify small molecule agonists of the estrogen receptor beta (ER-beta) signaling pathway - cell viability counter screen (AID 1259380); details: ER-beta-bla HEK293T viability, CellTiter-Glo luminescence, 16 h; series mostly up to 92.4 µM; note: nearly all actives have a fitted effect of over 30% in size
Results filed as inconclusive are left out. Calls of active or inactive are those of the source. The call rests on the fitted dose curve; in most records, active means well fitted cell-killing curve with a large enough effect in the repeat runs; inconclusive means weak or mixed curves, or effect the other way; inactive means flat fitted curve, though single readings scatter.
Thanks in advance; please answer with one of these: active, inactive

As a guide, the following entries are already answered.
# compound, group
measured = [
    ("CCOc1cc(C=O)ccc1O", "inactive"),
    ("C#C[C@]1(O)CC[C@H]2[C@@H]3CCC4=CC(=O)CC[C@]4(C)[C@H]3CC[C@@]21C", "inactive"),
    ("O=C(O)CC[N+](=O)[O-]", "inactive"),
    ("C1=Cc2cccc3cccc1c23", "inactive"),
    ("Cc1ccc(N)c(N)c1", "inactive"),
    ("COc1ccc(C(CN(C)C)C2(O)CCCCC2)cc1 (stereo not given)", "inactive"),
    ("O=[N+]([O-])c1cccc2ccccc12", "inactive"),
    ("COC(=O)c1sccc1S(=O)(=O)NC(=O)Nc1nc(C)nc(OC)n1", "inactive"),
    ("O=c1oc2ccccc2c(O)c1C(CC(O)c1ccc(-c2ccc(Br)cc2)cc1)c1ccccc1 (stereo not given)", "inactive"),
    ("Brc1ccc(Oc2cc(Br)c(Br)cc2Br)c(Br)c1", "active"),
]

Would you kindly look at the next entry?
Asked: Called result for N#CC(Br)Br
Given back: inactive

###

assay: qHTS assay to identify small molecule antagonists of the retinoid-related orphan receptor gamma (ROR-gamma) signaling pathway - cell viability counter screen (AID 1159520); conditions: Tet-on RORgamma CHO cells viability, ATP luminescence, 16 h; series mostly up to 92.4 µM; note: % is set by controls: 0 for no effect and ±100 for the full control effect; nearly all actives have a fitted effect of over 50% in size
Inconclusive results are not listed. Calls of active or inactive are those of the source. Calls come from the whole dose curve; as a rule, active = well fitted cell-killing curve with a large enough effect in the repeat runs; inconclusive = weak or mixed curves, or effect the other way; inactive = no such curve, though single readings can be large or run the other way.
measured property: outcome

Worked set:
# query smiles, outcome
records = [
    ("CNC(=O)Oc1cccc2c1OC(C)(C)O2", "inactive"),
    ("CCC(CC)Nc1c([N+](=O)[O-])cc(C)c(C)c1[N+](=O)[O-]", "inactive"),
    ("CC(C)(C)c1ccccc1O", "inactive"),
    ("CCCCCCCCOC(=O)c1ccccc1C(=O)OCCCCCCCC", "inactive"),
    ("c1ccc(NNc2ccccc2)cc1", "inactive"),
]

Asked: Quick one: outcome for NNC(=S)NN ?
Given back: inactive

Asked: Tell me the measured outcome of O=P(O)(O)CCCl , please.
Given back: inactive

Asked: Request the reported outcome associated with CCCCCCOC(=O)c1ccccc1C(=O)OCCCCCC
Given back: inactive

Asked: Could you share which outcome value was measured for C1=Cc2cccc3cccc1c23 ?
Given back: inactive

Asked: Requested field: outcome. Item: CCOc1cc(C=O)ccc1O
Given back: inactive

Asked: Please report the recorded outcome for CCN(CC)N=O .
Given back: inactive

Asked: Which outcome is listed for CCC(=O)O[C@H]1CC[C@H]2[C@@H]3CCC4=CC(=O)CC[C@]4(C)[C@H]3CC[C@]12C ?
Given back: inactive
